# TARGET SYSTEM: Muscarinic acetylcholine receptor M2 (Homo sapiens, UniProt P08172); note: assay procedure not described here
# Sequence (P08172 whole entry): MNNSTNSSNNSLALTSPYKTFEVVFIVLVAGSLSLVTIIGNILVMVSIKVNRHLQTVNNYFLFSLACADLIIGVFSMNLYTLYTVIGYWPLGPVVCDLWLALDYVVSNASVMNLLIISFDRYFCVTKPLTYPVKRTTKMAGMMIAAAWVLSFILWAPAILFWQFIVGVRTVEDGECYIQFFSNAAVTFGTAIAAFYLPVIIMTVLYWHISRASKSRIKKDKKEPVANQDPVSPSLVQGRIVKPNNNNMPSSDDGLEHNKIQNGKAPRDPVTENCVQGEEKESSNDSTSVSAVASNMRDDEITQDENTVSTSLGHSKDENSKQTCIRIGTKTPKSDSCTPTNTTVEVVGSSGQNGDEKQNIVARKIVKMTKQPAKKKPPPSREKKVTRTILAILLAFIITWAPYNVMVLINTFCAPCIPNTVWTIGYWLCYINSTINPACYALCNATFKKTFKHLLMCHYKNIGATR
# Assay type: functional, cell-based
Where a SMILES comes first, the peptide text is derived from it.
PROPERTY: AC50

INPUT: State, in one line, measured AC50 of "NS(=O)(=O)c1ccc(N2CCCCS2(=O)=O)cc1"
OUTPUT: > 30 µM

INPUT: State, in one line, measured AC50 of COC(=O)c1ccc2c(c1)NC(=O)/C2=C(\Nc1ccc(N(C)C(=O)CN2CCN(C)CC2)cc1)c1ccccc1 [NINTEDANIB]
OUTPUT: > 30 µM

INPUT: State, in one line, measured AC50 of CCN(CC)CCn1c(=O)c(Cc2ccc(OC)cc2)nc2ccccc21 [CAROVERINE]
OUTPUT: > 30 µM

INPUT: State, in one line, measured AC50 of COc1nc(C)nc(Cl)c1N=C1NCCN1 [MOXONIDINE]
OUTPUT: > 30 µM

INPUT: State, in one line, measured AC50 of C#CCN(C)Cc1ccccc1 [PARGYLINE]
OUTPUT: > 30 µM

INPUT: State, in one line, measured AC50 of CCOCC(O)COc1ccc(NC(=O)CC[S+](C)C)cc1 (stereo not drawn)
OUTPUT: > 30 µM

INPUT: State, in one line, measured AC50 of CC(C)(CO)c1cc2cc(NC(=O)C3(c4ccc5c(c4)OC(F)(F)O5)CC3)c(F)cc2n1C[C@@H](O)CO [TEZACAFTOR]
OUTPUT: > 30 µM

INPUT: State, in one line, measured AC50 of CC(=O)OCC1=C(C(=O)O)N2C(=O)[C@@H](NC(=O)CSc3ccncc3)[C@H]2SC1 [CEPHAPIRIN]
OUTPUT: > 10 µM

INPUT: State, in one line, measured AC50 of CS(=O)(=O)NC(=O)CCC/C=C\C[C@H]1C(=O)C[C@@H](O)[C@@H]1/C=C/[C@@H](O)COc1ccccc1 [SULPROSTONE]
OUTPUT: > 30 µM

INPUT: State, in one line, measured AC50 of COc1cc2c(cc1OC)C1CC(=O)C(CC(C)C)CN1CC2 (stereo not drawn) [TETRABENAZINE]
OUTPUT: > 30 µM

INPUT: State, in one line, measured AC50 of CN(C)CCC(O)(c1ccccc1)c1ccccc1Cl (stereo not drawn) [CHLOPHEDIANOL]
OUTPUT: > 10 µM

INPUT: State, in one line, measured AC50 of C[C@H](N)C(=O)N[C@@H](CCC(N)=O)C(=O)O [ALANYL GLUTAMINE] (H-Ala-Gln-OH)
OUTPUT: > 30 µM

INPUT: State, in one line, measured AC50 of CO/N=C(\C(=O)N[C@@H]1C(=O)N2C(C(=O)[O-])=C(C[n+]3ccc(N)n3CCO)CS[C@H]12)c1csc(N)n1 [CEFOSELIS]
OUTPUT: > 30 µM

INPUT: State, in one line, measured AC50 of O=C(c1ccccc1)c1ccc2n1CCC2C(=O)O (stereo not drawn) [KETOROLAC]
OUTPUT: > 30 µM

INPUT: State, in one line, measured AC50 of OCCN(CCO)c1nc(N2CCCCC2)c2nc(N(CCO)CCO)nc(N3CCCCC3)c2n1 [DIPYRIDAMOLE]
OUTPUT: > 30 µM

INPUT: State, in one line, measured AC50 of OCCOCCN1CCN(C(c2ccccc2)c2ccc(Cl)cc2)CC1 (stereo not drawn) [HYDROXYZINE]
OUTPUT: > 10 µM

INPUT: State, in one line, measured AC50 of CC1Cc2ccccc2N1NC(=O)c1ccc(Cl)c(S(N)(=O)=O)c1 (stereo not drawn) [INDAPAMIDE]
OUTPUT: > 10 µM

INPUT: State, in one line, measured AC50 of "CCOC(=O)[C@H](CCc1ccccc1)N[C@@H](C)C(=O)N1Cc2ccccc2C[C@H]1C(=O)O"
OUTPUT: > 10 µM

INPUT: State, in one line, measured AC50 of CCNC(=O)CCC/C=C\C[C@@H]1[C@@H](/C=C/[C@@H](O)CCc2ccccc2)[C@H](O)C[C@@H]1O [BIMATOPROST]
OUTPUT: > 30 µM

INPUT: State, in one line, measured AC50 of NCC1(CC(=O)O)CCCCC1 [GABAPENTIN]
OUTPUT: > 30 µM

INPUT: State, in one line, measured AC50 of CS(=O)(=O)Nc1ccc([N+](=O)[O-])cc1Oc1ccccc1 [NIMESULIDE]
OUTPUT: > 30 µM

INPUT: State, in one line, measured AC50 of OCC(O)COc1ccc(Cl)cc1 (stereo not drawn)
OUTPUT: > 10 µM

INPUT: State, in one line, measured AC50 of CCC(NC(C)C)C(O)c1ccc(O)c(O)c1 (stereo not drawn) [ISOETHARINE]
OUTPUT: > 30 µM
